# Tested on: KM12 colon
# EXPERIMENTAL DETAILS: NCI tumour cell line growth inhibition, 48 h
Quick reference for TGI among some molecules

# MOLECULE, MEASUREMENT KIND, RESULT
measured = [
    ("C=CCOCCCCC(C(C)=O)C(=O)OC (stereo unspecified)", "TGI", "> 100 µM"),
    ("COC(=O)/C=C/c1cc(OC)c(OC)c(OC)c1", "TGI", "> 100 µM"),
    ("Oc1ccc2ccccc2c1N=Nc1nccs1", "TGI", "19.9 µM"),
]

Query :: Find the recorded TGI belonging to `Cc1cccc(C)c1NC(=O)C(=O)C1C(=O)NC(=O)NC1=O` and report it.
Result :: > 100 µM

Query :: Find the recorded TGI belonging to `CN1CCN(C)C12C=c1ccccc1=CC21CC1` and report it.
Result :: 68.4 µM

Query :: Find the recorded TGI belonging to `COC(=O)c1c/c(=N\NC(=O)CC(=O)Nc2ccccc2OC)c2ccccc2o1` and report it.
Result :: > 100 µM

====

# Test system: HS 578T breast
# EXPERIMENTAL DETAILS: NCI tumour cell line growth inhibition, 48 h
Quick reference for TGI among some compounds

Answered cases to consult:
# COMPOUND, TGI
measured = [
    ("Oc1ccc2ccccc2c1N=Nc1nccs1", "45.2 µM"),
    ("CC(=O)OC[C@]1(C)C=C2C(=O)[C@](C)(O)C3(CC3)C(C)=C2[C@H]1O", "1.09 µM"),
    ("COCc1nc2c(OC)cc(-c3nc4ccc(N5CCN(C)CC5)cc4[nH]3)c(OC)c2[nH]1", "> 100 µM"),
]

Query :: Find the recorded TGI belonging to CC(C)(C)[Si](C)(C)OCC1OC(n2cnc3c(N)ncnc32)C(O[Si](C)(C)C(C)(C)C)C1O[Si](C)(C)C(C)(C)C (stereo not drawn) and report it.
Result :: 58.5 µM

Query :: Find the recorded TGI belonging to `CCCCc1ccc(Nc2nc3c(ncn3COCCO)c(=O)[nH]2)cc1` and report it.
Result :: > 100 µM

Query :: Find the recorded TGI belonging to `CN(C)S(=O)(=O)Nc1nnc(S(N)(=O)=O)s1` and report it.
Result :: > 100 µM

Query :: Find the recorded TGI belonging to CCNC(=O)C1CCCN1C(=O)C(CCCN=C(N)N)NC(=O)C(CC(C)C)NC(=O)C(Cc1c[nH]c2ccccc12)NC(=O)C(Cc1ccc(O)cc1)NC(=O)C(CO)NC(=O)C(Cc1c[nH]c2ccccc12)NC(=O)C(Cc1cnc[nH]1)NC(=O)C1CCC(=O)N1 (stereo not drawn) and report it.
Result :: > 100 µM

Query :: Find the recorded TGI belonging to `Nc1ccc2[nH]c(-c3cccc(Cl)c3)cc(=O)c2c1` and report it.
Result :: > 100 µM

====

Quick reference for TGI among some compounds
# System: XF 498 CNS
# EXPERIMENTAL DETAILS: NCI tumour cell line growth inhibition, 48 h
# number only, unit µM dropped from output

Query :: Find the recorded TGI belonging to CCOC(=O)C1=C(OC(OCC)C(CC)[Se]c2ccccc2)CCCC1 (stereo not given) and report it.
Result :: 46.5

Query :: Find the recorded TGI belonging to CCCCCCCCCCNC1CC(OC2CC(O)(C(O)CO)Cc3c(O)c4c(c(O)c32)C(=O)c2c(OC)cccc2C4=O)OC(C)C1O (stereo not given) and report it.
Result :: 3.34
